# assay-system: ZAP-70 (Homo sapiens, UniProt P43403)
# Sequence (P43403 1-619): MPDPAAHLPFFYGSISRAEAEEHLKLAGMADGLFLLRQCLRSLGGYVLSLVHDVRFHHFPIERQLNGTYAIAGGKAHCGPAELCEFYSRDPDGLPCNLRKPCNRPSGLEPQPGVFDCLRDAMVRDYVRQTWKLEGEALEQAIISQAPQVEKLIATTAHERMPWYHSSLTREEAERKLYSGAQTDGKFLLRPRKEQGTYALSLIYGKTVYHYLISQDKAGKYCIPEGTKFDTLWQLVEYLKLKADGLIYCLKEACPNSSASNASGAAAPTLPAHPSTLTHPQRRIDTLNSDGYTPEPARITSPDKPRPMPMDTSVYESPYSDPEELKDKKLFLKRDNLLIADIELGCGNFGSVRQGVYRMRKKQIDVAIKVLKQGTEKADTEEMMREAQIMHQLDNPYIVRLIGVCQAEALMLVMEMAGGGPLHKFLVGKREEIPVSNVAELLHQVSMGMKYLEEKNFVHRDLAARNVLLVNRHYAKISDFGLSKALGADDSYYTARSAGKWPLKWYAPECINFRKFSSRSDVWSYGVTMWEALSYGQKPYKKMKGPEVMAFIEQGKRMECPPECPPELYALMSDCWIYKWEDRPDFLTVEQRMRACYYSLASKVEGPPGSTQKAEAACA
# procedure-summary: DELFIA assay (ZAP-70 kinase, phosphorylation of biotinylated poly(glu,tyr))
# Assay type: biochemical
# condition-context: ZAP-70 DELFIA, class symbols; read-out: Activity (IC50 in vitro)
parameter: IC50

Examples from the recorded data:
| smiles-notation | IC50 |
| --- | --- |
| C[C@H](Nc1cc(C(=O)N2CCC[C@H]2CN2CCCC2)c2cc(-c3ccc(C#N)cc3)ccc2n1)[C@H](O)c1ccccc1 | < 1 µM |
| CC(=O)N[C@H]1CCN(c2cc(C(=O)N3CCC[C@H]3CN3CCCC3)c3cc(-c4ccc5c(c4)OCO5)ccc3n2)C1 | > 10 µM |
| O=C(c1cc(NCc2ccc(C(F)(F)F)cc2)nc2ccc(-c3ccc(F)cc3F)cc12)N1CCC[C@H]1CN1CCCC1 | 1 to 10 µM |
| CN1CCC(N(C)c2cc(C(=O)N3CCC[C@H]3CN3CCCC3)c3cc(-c4ccc5c(c4)OCO5)ccc3n2)CC1 | < 1 µM |
| N#Cc1ccc(-c2ccc3nc(N(Cc4ccccc4)Cc4ccccc4)cc(C(=O)N4CCC[C@H]4CN4CCCC4)c3c2)cc1 | > 10 µM |

Turning now to a further record.
Query :: Requested read-out: IC50. Entry: CS(=O)(=O)c1ccc(CNc2cc(C(=O)N3CCC[C@H]3CN3CCCC3)c3cc(-c4ccc(C#N)cc4)ccc3n2)cc1
Result :: 1 to 10 µM

----------
# assay-system: UniProtKB P43403
# Sequence (P43403 1-619): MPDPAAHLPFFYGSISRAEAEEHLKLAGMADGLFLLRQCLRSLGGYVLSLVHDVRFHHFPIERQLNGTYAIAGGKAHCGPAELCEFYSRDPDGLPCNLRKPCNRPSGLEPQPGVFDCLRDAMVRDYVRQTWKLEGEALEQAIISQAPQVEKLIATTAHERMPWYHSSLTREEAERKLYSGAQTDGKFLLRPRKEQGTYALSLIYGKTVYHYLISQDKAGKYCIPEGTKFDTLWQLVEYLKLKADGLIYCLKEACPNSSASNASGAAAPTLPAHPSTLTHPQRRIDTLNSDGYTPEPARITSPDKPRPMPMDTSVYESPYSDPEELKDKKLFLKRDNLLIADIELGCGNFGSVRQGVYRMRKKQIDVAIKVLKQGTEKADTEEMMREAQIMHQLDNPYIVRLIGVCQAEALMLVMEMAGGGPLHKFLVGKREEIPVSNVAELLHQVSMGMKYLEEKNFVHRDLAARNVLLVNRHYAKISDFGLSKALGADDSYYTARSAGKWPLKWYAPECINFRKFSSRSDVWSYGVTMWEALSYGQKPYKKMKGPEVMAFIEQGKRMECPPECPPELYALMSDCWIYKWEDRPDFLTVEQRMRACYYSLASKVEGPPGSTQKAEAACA
# procedure-summary: DELFIA assay (ZAP-70 kinase, phosphorylation of biotinylated poly(glu,tyr))
# Type: biochemical
# condition-context: ZAP-70 DELFIA, class symbols; read-out: Activity (IC50 in vitro)
parameter: IC50

Examples from the recorded data:
| smiles-notation | data-value |
| --- | --- |
| N#Cc1ccc(-c2ccc3nc(N4CCc5[nH]c6c(F)cccc6c5C4)cc(C(=O)N4CCC[C@H]4CN4CCCC4)c3c2)cc1 | > 10 µM |
| O=C(c1cc(NCc2ccc(C(F)(F)F)cc2)nc2ccc(-c3ccc4c(c3)OCO4)cc12)N1CCC[C@H]1CNC1CC1 | 1 to 10 µM |

Query :: Requested read-out: IC50. Entry: CC(=O)c1ccc(-c2ccc3nc(NCc4ccc(C(F)(F)F)cc4)cc(C(=O)N4CCC[C@H]4CN4CCCC4)c3c2)s1
Result :: < 1 µM

----------
# assay-system: UniProt P43403
# procedure-summary: DELFIA assay (ZAP-70 kinase, phosphorylation of biotinylated poly(glu,tyr))
# Assay type: biochemical
# condition-context: ZAP-70 DELFIA, class symbols; read-out: Activity (IC50 in vitro)
parameter: IC50

| compound | IC50 |
| --- | --- |
| O=C(c1cc(N[C@@H]2c3ccccc3C[C@@H]2O)nc2ccc(-c3ccc4c(c3)OCO4)cc12)N1CCC[C@H]1CN1CCCC1 | 1000 to 10000 nM |

Query :: I'm curious: which IC50 was measured for O=C(c1cc(CCc2ccc(-c3ccccc3)cc2)nc2ccc(-c3ccc4c(c3)OCO4)cc12)N1CCC[C@H]1CN1CCCC1 tested on UniProt P43403?
Result :: < 1000 nM

Query :: I'm curious: which IC50 was measured for N#Cc1ccc(-c2ccc3nc(N4CCCC4c4ccccc4)cc(C(=O)N4CCC[C@H]4CN4CCCC4)c3c2)cc1 (stereo partly shown) tested on UniProt P43403?
Result :: > 10000 nM

Query :: I'm curious: which IC50 was measured for CCN(Cc1ccccc1)c1cc(C(=O)N2CCC[C@H]2CN2CCCC2)c2cc(-c3ccc4c(c3)OCO4)ccc2n1 tested on UniProt P43403?
Result :: < 1000 nM

----------
Below is a list of entries, each paired with its recorded pIC50 value.
# assay-system: UniProt:P43403
# procedure-summary: DELFIA assay (ZAP-70 kinase, phosphorylation of biotinylated poly(glu,tyr))
# Format: biochemical
# condition-context: ZAP-70 DELFIA, class symbols; read-out: Activity (IC50 in vitro)
pIC50: −log10 of the molar value.

Examples from the recorded data:
| compound | pIC50 |
| --- | --- |
| Cc1cc(CNc2cc(C(=O)N3CCC[C@H]3CN3CCCC3)c3cc(-c4ccc(C#N)cc4)ccc3n2)ccc1F | < 5.00 |
| C[C@@H](O)CNc1cc(C(=O)N2CCC[C@H]2CN2CCCC2)c2cc(-c3ccc4c(c3)OCO4)ccc2n1 | 5.00 to 6.00 |
| Nc1cc(C(=O)N2CCC[C@H]2CN2CCCC2)c2cc(-c3ccc4c(c3)OCO4)ccc2n1 | 5.00 to 6.00 |
| N#Cc1ccc(-c2ccc3nc(N[C@H]4CCc5ccccc54)cc(C(=O)N4CCC[C@H]4CN4CCCC4)c3c2)cc1 | < 5.00 |
| O=C(c1cc(NC2CCC2)nc2ccc(-c3ccc4c(c3)OCO4)cc12)N1CCC[C@H]1CN1CCCC1 | 5.00 to 6.00 |

Query :: Requested read-out: pIC50. Entry: N#Cc1ccc(-c2ccc3nc(CCc4ccc(C(F)(F)F)cc4)cc(C(=O)N4CCC[C@H]4CN4CCCC4)c3c2)cc1
Result :: > 6.00

Query :: Requested read-out: pIC50. Entry: O=C(c1cc(Nc2ccccc2)nc2ccc(-c3ccc4c(c3)OCO4)cc12)N1CCC[C@H]1CN1CCCC1
Result :: > 6.00

Query :: Requested read-out: pIC50. Entry: N#Cc1ccc(-c2ccc3nc(N4CCC(c5ccc(F)cc5)C4)cc(C(=O)N4CCC[C@H]4CN4CCCC4)c3c2)cc1 (stereo partly drawn)
Result :: < 5.00

Query :: Requested read-out: pIC50. Entry: CN(Cc1ccccc1)c1cc(C(=O)N2CCC[C@H]2CN2CCCC2)c2cc(-c3ccc(C#N)cc3)ccc2n1
Result :: < 5.00

Query :: Requested read-out: pIC50. Entry: CN1CCN(c2ccc(Nc3cc(C(=O)N4CCCC4CN4CCCC4)c4cc(-c5ccc6c(c5)OCO6)ccc4n3)cc2)CC1 (stereo not drawn)
Result :: > 6.00

Query :: Requested read-out: pIC50. Entry: O=C(c1cc(SCc2ccc(Cl)cc2)nc2ccc(-c3ccc4c(c3)OCO4)cc12)N1CCC[C@H]1CN1CCCC1
Result :: > 6.00

Query :: Requested read-out: pIC50. Entry: Fc1ccc(CCc2cc(Nc3ccc(N4CCNCC4)cc3)c3cc(-c4ccc5c(c4)OCO5)ccc3n2)cc1
Result :: < 5.00

Query :: Requested read-out: pIC50. Entry: CN(Cc1ccc(Cl)c(Cl)c1)c1cc(C(=O)N2CCC[C@H]2CN2CCCC2)c2cc(-c3ccc4c(c3)OCO4)ccc2n1
Result :: > 6.00

Query :: Requested read-out: pIC50. Entry: N#Cc1ccc(-c2ccc3nc(N[C@H](CO)Cc4ccccc4)cc(C(=O)N4CCC[C@H]4CN4CCCC4)c3c2)cc1
Result :: 5.00 to 6.00

Query :: Requested read-out: pIC50. Entry: O=C(c1cc(NCc2ccncc2)nc2ccc(-c3ccc4c(c3)OCO4)cc12)N1CCC[C@H]1CN1CCCC1
Result :: 5.00 to 6.00

Query :: Requested read-out: pIC50. Entry: CCN(Cc1ccc(C)cc1)c1cc(C(=O)N2CCC[C@H]2CN2CCCC2)c2cc(-c3ccc4c(c3)OCO4)ccc2n1
Result :: > 6.00
